Data origin, for the record: the nanobody polyreactivity screen of Harvey et al. (2022)

# procedure_summary: yeast display, Sf9 membrane polyspecificity reagent, FACS + sequencing; frameworks hold sequencing errors
endpoint_name: polyreactivity (PSR sort gate)

>>> observed("QVQLVESGGGLVQAGGSLRLSCAASGITSHPYDMGWYRQAPGKERELVAVITSGGSTSYADSVKGRFTISRDNAKNTVYLQMNSLKPEDTAVYYCNADSWYAWYSYGYDYWGQGTQVTVSS")
"low polyreactivity"
>>> observed("QVQLVASGGGLVQAGGSLRLSSAASGFTFYGYAMGWYSQARGKERELVATIRRSTGSTYYADSVKGRFTISRDNAKNTVYLQINSLIPEDTAVYYCATRVWFPITSYDYWGQGTQVTVSS")
"low polyreactivity"
>>> observed("QVQLVESGGGLVQAGGSLRLSCAASGSTFYVYAMGWYRQAPGKERELVAAIDRGSSTYADSVKGRFTISRDNAKNTVYLQMNSLKPEDTAVYYCAAEKERDEEYDYWGQGTQVTVSS")
"low polyreactivity"
